Test system: C2C12
EXPERIMENT NOTES: Cytotoxicity against mouse C2C12 cells assessed as reduction in cell viability at 0.78 to 100 uM measured after 24 hrs by MTT assay
Format: toxicity, cell-based
RECORDED CONDITIONS: c2c12, 24 h, dose 0.78-100 µM
OUTCOME MEASURE: Activity

* CCS(=O)(=O)c1ccc2nc(Nc3ccc4c(c3)OCO4)ccc2c1 | Toxic
* CS(=O)(=O)c1ccc2cnc(NCc3ccc(F)cc3)nc2c1 | Toxic
* CS(=O)(=O)c1ccc2cnc(NCc3ccc(C(F)(F)F)cc3)nc2c1 | Toxic
* CCS(=O)(=O)c1ccc2nc(Nc3ccc(C(C)(C)C)cc3)ncc2c1 | Toxic
* CCS(=O)(=O)c1ccc2nc(NCc3ccc4c(c3)OCO4)ccc2c1 | Toxic

Ask: What value of Activity has been reported for the following molecule? COc1cc(Nc2ncc3cc(S(C)(=O)=O)ccc3n2)cc(OC)c1
Reply: Toxic

Ask: Moving on to CS(=O)(=O)c1ccc2nc(Nc3ccc(C(F)(F)F)cc3)ccc2c1
Reply: Toxic

Ask: Moving on to CS(=O)(=O)c1ccc2nc(NCc3ccc4c(c3)OCO4)ccc2c1
Reply: Toxic

Where these numbers come from: ChEMBL document CHEMBL5506058
